Experiment: RP, Waters ACQUITY UPLC HSS C18, 100 × 2.1 mm, 1.7 µm, 40 °C, 0.35 mL/min, estimated dead time 0.63 min; A: water + 0.1% formic acid; B: methanol + 0.1% formic acid; gradient (min/%B) 0/0.5 4/70 4.5/98 5.4/98
Conditions: stereoisomer not certain
Where LC retention time equals or exceeds 3 min, the correct label is 1.0; where it does not, the label is 0.0.

Answered cases to consult:
>  <MOLECULE>
CCC1(C)CC(=O)NC1=O (centres undefined)

>  <LABEL CLASS>
1.0

$$$$
>  <MOLECULE>
NC(CCOC(=O)CCC(=O)O)C(=O)O (centres undefined)

>  <LABEL CLASS>
0.0

$$$$
>  <MOLECULE>
NC(=O)C(N)Cc1c[nH]c2ccccc12 (centres undefined)

>  <LABEL CLASS>
0.0

$$$$

### Prompt Say whether CCOC(=O)c1cncn1C(C)c1ccccc1 (centres undefined) shows LC retention time of 3 min or more.
### Response 1.0
